Tested System: Recombinant human BACE1 (Homo sapiens, UniProt P56817)
Construct: purchased R&D Systems
Sequence (P56817 46-501): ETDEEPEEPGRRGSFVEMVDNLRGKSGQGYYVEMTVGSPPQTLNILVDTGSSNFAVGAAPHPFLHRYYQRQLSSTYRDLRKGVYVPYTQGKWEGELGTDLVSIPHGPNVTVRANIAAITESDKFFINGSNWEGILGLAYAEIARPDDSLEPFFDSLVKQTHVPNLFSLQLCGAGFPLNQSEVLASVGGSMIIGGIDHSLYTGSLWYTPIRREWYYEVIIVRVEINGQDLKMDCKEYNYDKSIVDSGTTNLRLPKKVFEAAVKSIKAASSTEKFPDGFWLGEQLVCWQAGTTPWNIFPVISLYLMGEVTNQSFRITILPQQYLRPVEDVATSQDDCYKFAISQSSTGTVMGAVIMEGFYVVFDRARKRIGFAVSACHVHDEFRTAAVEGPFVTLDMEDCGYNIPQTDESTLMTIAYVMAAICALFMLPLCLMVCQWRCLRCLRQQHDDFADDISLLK
Procedure Text: Assay of BACE1 inhibitory activity: 96-well
Format: biochemical
Test Context: Assay format 96-well
Experimental: 48.5 μL of substrate peptide solution (Biotin-XSEVNLDAEFRHDSGC-Eu: X=ε-amino-n-capronic acid. Eu=Europium cryplate) was added to each well of 96-hole half-area plate (a black plate: Costar), and after addition of 0.5 μl of the compound of the present invention (DMSO solution) and 1 μl of Recombinant human BACE1(R&D Systems), the reaction mixture was incubated at 30° C. for 3.5 hours. […]
Lab note - cut at 30 nM for IC50: Y if strictly below, N if not.

Consider the worked cases shown below.
| Substance Smiles | Tested System | Group |
| --- | --- | --- |
| CO[C@H]1[C@@H](C(F)(F)F)OC(N)=N[C@]1(C)c1cc(NC(=O)c2ccc(C#N)cn2)ccc1F | Recombinant human BACE1 (Homo sapiens, UniProt P56817) | Y |
| C[C@@H](F)[C@H]1OC(N)=N[C@](C)(c2cc(NC(=O)c3ccc(C#N)cn3)ccc2F)[C@H]1F | Recombinant human BACE1 (Homo sapiens, UniProt P56817) | Y |
| CO[C@H]1[C@@H](CF)OC(N)=N[C@]1(C)c1cc(NC(=O)c2ncc(Cl)cc2Cl)ccc1Cl | Recombinant human BACE1 (Homo sapiens, UniProt P56817) | Y |
| C[C@]1(c2nc(NC(=O)c3ccc(C#N)cn3)ccc2F)N=C(N)S[C@H](CF)[C@@H]1F | Recombinant human BACE1 (Homo sapiens, UniProt P56817) | Y |
| Cc1nc(C(=O)Nc2ccc(F)c([C@@]3(C)N=C(N)O[C@H](C(F)(F)F)[C@@H]3C)c2)co1 | Recombinant human BACE1 (Homo sapiens, UniProt P56817) | N |

Below 30 nM on IC50? Entry `CO[C@H]1[C@@H](CF)OC(N)=N[C@]1(C)c1cc(NC(=O)c2ccc(Cl)cn2)ccc1F` N

For this compound, is IC50 lower than 30 nM? `C[C@H](F)[C@H]1OC(N)=N[C@](C)(c2cc(NC(=O)c3ccc(C#N)cn3)ccc2F)[C@H]1F` N

---

Tested System: P-gp (Mus musculus, UniProt P21447)
Construct: from tissue; host or cells: living mice (brain/plasma distribution), wild type versus mdr1a (−/−)
Sequence (P21447 whole entry): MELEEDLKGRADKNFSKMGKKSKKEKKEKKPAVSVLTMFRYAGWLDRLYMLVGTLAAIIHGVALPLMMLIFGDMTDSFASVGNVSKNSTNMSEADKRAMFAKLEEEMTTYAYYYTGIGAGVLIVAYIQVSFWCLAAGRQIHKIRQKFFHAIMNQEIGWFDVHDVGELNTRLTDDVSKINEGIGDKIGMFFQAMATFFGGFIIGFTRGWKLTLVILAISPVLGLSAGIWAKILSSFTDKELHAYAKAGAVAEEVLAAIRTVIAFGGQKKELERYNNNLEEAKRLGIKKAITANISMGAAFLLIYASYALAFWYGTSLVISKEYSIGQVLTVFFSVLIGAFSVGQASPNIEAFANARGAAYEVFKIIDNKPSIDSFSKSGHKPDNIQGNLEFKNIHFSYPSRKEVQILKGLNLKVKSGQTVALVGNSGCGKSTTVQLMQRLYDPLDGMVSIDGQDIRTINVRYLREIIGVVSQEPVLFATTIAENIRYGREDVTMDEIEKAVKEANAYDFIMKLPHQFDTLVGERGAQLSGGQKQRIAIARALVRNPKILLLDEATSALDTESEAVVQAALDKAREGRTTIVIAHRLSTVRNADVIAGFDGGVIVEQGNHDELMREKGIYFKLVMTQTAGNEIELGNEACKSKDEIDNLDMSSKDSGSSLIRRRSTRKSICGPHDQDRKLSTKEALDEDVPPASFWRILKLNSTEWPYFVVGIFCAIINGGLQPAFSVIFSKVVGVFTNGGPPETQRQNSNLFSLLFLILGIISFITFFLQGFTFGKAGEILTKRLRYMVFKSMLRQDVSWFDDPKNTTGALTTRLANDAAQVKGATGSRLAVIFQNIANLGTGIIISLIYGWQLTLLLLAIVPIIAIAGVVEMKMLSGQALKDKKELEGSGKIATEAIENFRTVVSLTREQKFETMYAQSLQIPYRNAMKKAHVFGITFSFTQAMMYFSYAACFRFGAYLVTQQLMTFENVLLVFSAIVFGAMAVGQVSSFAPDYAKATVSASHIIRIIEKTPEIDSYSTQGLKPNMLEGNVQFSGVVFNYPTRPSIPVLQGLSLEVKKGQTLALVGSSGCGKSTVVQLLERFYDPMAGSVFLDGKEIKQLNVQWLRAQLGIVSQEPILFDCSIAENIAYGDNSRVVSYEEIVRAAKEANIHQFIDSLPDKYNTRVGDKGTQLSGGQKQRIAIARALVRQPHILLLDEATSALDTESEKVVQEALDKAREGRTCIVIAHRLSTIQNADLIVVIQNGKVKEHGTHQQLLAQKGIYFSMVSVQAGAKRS
Procedure Text: P-gp substrate test using mdr1a (−/−) B6 mice
Format: in vivo
Test Context: mdr1a (−/−) B6 (KO) and C57BL/6J (wild), mouse, brain / plasma, po, 2 mg/kg, Kp in KO mouse (mdr1a (−/−) B6) / Kp in Wild mouse, read-out: Kp ratio (2 mg/kg, po, 2 hr)
Outcome Measure: Kp at 2 h

For orientation, consider the following solved cases.
| Substance Smiles | Tested System | Outcome Measure | Recorded Value |
| --- | --- | --- | --- |
| C[C@H]1[C@@H](C(F)(F)F)OC(N)=N[C@]1(C)c1cc(NC(=O)c2ccc(C#N)cn2)ccc1F | P-gp (Mus musculus, UniProt P21447) | Kp at 2 h | 5.41 |
| C[C@H]1[C@@H](C(F)(F)F)OC(N)=N[C@]1(C)c1cc(NC(=O)c2cnc(OCF)cn2)ccc1F | P-gp (Mus musculus, UniProt P21447) | Kp at 2 h | 3.63 |

Which Kp at 2 h is reported with P-gp (Mus musculus, UniProt P21447) for this entry: `C[C@H]1SC(N)=N[C@](C)(c2nc(NC(=O)c3cnc(OCF)cn3)ccc2F)[C@H]1F` ? 5.16

Form entry - test system: P-gp (Mus musculus, UniProt P21447); read-out: Kp at 2 h; molecule: `C[C@H]1SC(N)=N[C@](C)(c2cc(NC(=O)c3ccc(F)cn3)ccc2F)[C@H]1F` 4.54
